Measured self-cleavage kobs at 2500 uM GlcN6P, listed per entry.
B1: glmS ribozyme (parent)
chain: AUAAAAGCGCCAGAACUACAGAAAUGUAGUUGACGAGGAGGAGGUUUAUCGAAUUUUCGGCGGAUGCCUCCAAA

# Variants of: B1
# assay protocol: self-cleavage kobs at 2500 uM GlcN6P; higher = faster cleavage; RNA array
# assay setup: with glucosamine-6-phosphate
This sample holds only a part of the variants without activity.
Numbers only here, please. The scale is s⁻¹.

For orientation, consider the following solved cases.
In [3]: df
Out[3]:
   mutation_annotation  recorded_result
0            U45G C67A          0.00369
1            U54A U65G            0.001
2            U49G A53G         0.000714

# input variant: G13U G29U A39G ; wanted: its self-cleavage kobs at 2500 uM GlcN6P
7.21e-05

# input variant: A39G G66A U69G ; wanted: its self-cleavage kobs at 2500 uM GlcN6P
3.43e-05

# input variant: A12G U30A U69C ; wanted: its self-cleavage kobs at 2500 uM GlcN6P
5.49e-05

# input variant: A14G G40U G41C ; wanted: its self-cleavage kobs at 2500 uM GlcN6P
0.00015

# input variant: U31C C50G C70U ; wanted: its self-cleavage kobs at 2500 uM GlcN6P
4.19e-05

# input variant: A33C A53U U54G ; wanted: its self-cleavage kobs at 2500 uM GlcN6P
0.000173

# input variant: G29A C50G ; wanted: its self-cleavage kobs at 2500 uM GlcN6P
0.00038

# input variant: C50G G51A G59U C70G ; wanted: its self-cleavage kobs at 2500 uM GlcN6P
7.99e-05

# input variant: C11U U56C ; wanted: its self-cleavage kobs at 2500 uM GlcN6P
0.000176

# input variant: A39U A53G ; wanted: its self-cleavage kobs at 2500 uM GlcN6P
0.0187

# input variant: G9A C50G U55A C67G ; wanted: its self-cleavage kobs at 2500 uM GlcN6P
4.95e-05

# input variant: C50G C71G ; wanted: its self-cleavage kobs at 2500 uM GlcN6P
0.000242

# input variant: A12G C67U ; wanted: its self-cleavage kobs at 2500 uM GlcN6P
0.000297

# input variant: U30G A53C ; wanted: its self-cleavage kobs at 2500 uM GlcN6P
0.00138

# input variant: G44C A53C ; wanted: its self-cleavage kobs at 2500 uM GlcN6P
3.4e-05

# input variant: A36C C50G C70U ; wanted: its self-cleavage kobs at 2500 uM GlcN6P
0.00027

# input variant: A14C A15G U69A ; wanted: its self-cleavage kobs at 2500 uM GlcN6P
0.000115

# input variant: G38U C58U U69G ; wanted: its self-cleavage kobs at 2500 uM GlcN6P
0.000189

# input variant: G44A A48G C67G ; wanted: its self-cleavage kobs at 2500 uM GlcN6P
8.88e-05

# input variant: G40A G66U ; wanted: its self-cleavage kobs at 2500 uM GlcN6P
0.000124

# input variant: G37A G40C A42G ; wanted: its self-cleavage kobs at 2500 uM GlcN6P
0.000126

# input variant: A14G A33U ; wanted: its self-cleavage kobs at 2500 uM GlcN6P
3.08e-05
